Target: K-Ras G13C (Homo sapiens (Human), UniProt P01116+P62937, G13C)
Sequence (P01116-2 other isoform, or with tags, fused parts or gaps G13C): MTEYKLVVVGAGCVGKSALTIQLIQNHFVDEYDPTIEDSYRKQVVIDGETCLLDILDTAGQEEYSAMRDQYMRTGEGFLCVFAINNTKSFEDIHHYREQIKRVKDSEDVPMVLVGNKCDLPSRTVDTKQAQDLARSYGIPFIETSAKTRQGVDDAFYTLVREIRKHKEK
Sequence (P62937 whole entry): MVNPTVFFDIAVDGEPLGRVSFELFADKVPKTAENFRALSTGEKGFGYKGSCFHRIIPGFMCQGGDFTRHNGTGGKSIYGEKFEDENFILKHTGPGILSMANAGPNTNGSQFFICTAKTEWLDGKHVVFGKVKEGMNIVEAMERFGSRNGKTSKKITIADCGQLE
Experiment: Ras-Raf (BRAF RBD) disruption / FRET / MOA assay, KRAS G13C
Format: biochemical
Conditions: KRAS G13C; Ras-Raf disruption/FRET/MOA assay; read-out: IC50* KRAS G13C FRET data
pIC50: −log10 of the molar value.
Assign pIC50 to each entry below.

Please look at the items below and tell me pIC50 for each one, in order.
1. CCn1c(-c2cccnc2[C@H](C)OC)c2c3cc(ccc31)-c1cc(CF)cc(c1)C[C@H](NC(=O)[C@@H](COC1CN(C(=O)C#CC(C)(C)N(C)C)C1)C(C)C)C(=O)N1CCC[C@H](N1)C(=O)OCC(C)(C)C2 (atropisomer, axis not shown)
2. C=CC(=O)N1CC[C@H](C(=O)N(C)[C@H](C(=O)NC2C[C@@H]3CN(CCO3)c3ccc4c(c3)c(c(-c3cccnc3[C@H](C)OC)n4CC)CC(C)(C)COC(=O)[C@@H]3CCCN(N3)C2=O)C(C)C)C1 (stereo partly shown)
3. CCn1c(-c2cccnc2[C@H](C)OC)c2c3cc(ccc31)-c1cc(O)cc(c1)C[C@H](NC(=O)[C@H](C(C)C)N(C)C(=O)c1ncc(NC(=O)/C=C/CN(C)C)n1C)C(=O)N1CCC[C@H](N1)C(=O)OCC(C)(C)C2
4. C=CC(=O)N1CCC2(CC1)CCN2C(=O)N(C)[C@H](C(=O)N[C@H]1Cc2nc(cs2)-c2ccc3c(c2)c(c(-c2cccnc2[C@H](C)OC)n3CC)CC(C)(C)COC(=O)[C@@H]2CCCN(N2)C1=O)C(C)C (atropisomer, axis not shown)

1: < 5.00; 2: < 5.00; 3: > 8.00; 4: 6.00 to 7.00
